- STUDY TARGET: KRAS G12D (Homo sapiens, UniProt P01116, G12D)
- Construct: AsPc-1-KRAS (G12D)-HiBit-KI cell (Pharmaron); host or cells: AsPc-1-KRAS (G12D)-HiBit-KI cells (HiBiT knock-in at the endogenous KRAS locus)
- Sequence (P01116 1-188 isoform P01116-2 G12D): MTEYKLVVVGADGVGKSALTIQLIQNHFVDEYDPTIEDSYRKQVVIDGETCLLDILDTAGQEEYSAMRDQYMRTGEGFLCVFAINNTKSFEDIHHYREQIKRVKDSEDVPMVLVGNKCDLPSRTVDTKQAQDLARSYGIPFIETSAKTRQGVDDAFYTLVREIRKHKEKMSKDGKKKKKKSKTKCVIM
- PROTOCOL SUMMARY: KRAS G12D HiBit assay
- Assay type: cell-based
- MEASUREMENT SETUP: AsPc-1-KRAS (G12D)-HiBit-KI cell, compound treatment for 24 hours, absolute DC50; class symbols
ENDPOINT LABEL: DC50

- MOLECULE: "C#Cc1cc(F)cc2cc(O)cc(-c3ncc4c(N5CCC[C@@](C)(O)C5)nc(OC[C@@]56CCCN5[C@H](COC(=O)N5CCC(CN7CCC(c8ccc9c(c8)n(C)c(=O)n9C8CCC(=O)NC8=O)CC7)CC5)CC6)nc4c3F)c12 (stereo partly drawn) [Compound 405]"
  STUDY TARGET: "KRAS G12D (Homo sapiens, UniProt P01116, G12D)"
  DC50: "< 0.1 µM"
- MOLECULE: "CCc1c(F)ccc2cc(O)cc(-c3ncc4c(N5CCC[C@@](C)(O)C5)nc(OC[C@@]56CCCN5[C@H](COC(=O)N5CCC(N7CCC(Oc8ccc9c(c8)n(C)c(=O)n9C8CCC(=O)NC8=O)CC7)CC5)CC6)nc4c3F)c12 (stereo partly drawn) [Compound 439]"
  STUDY TARGET: "KRAS G12D (Homo sapiens, UniProt P01116, G12D)"
  DC50: "< 0.1 µM"
- MOLECULE: "CCc1c(F)ccc2cc(O)cc(-c3ncc4c(N5CCC[C@@](C)(O)C5)nc(OC[C@@]56CCCN5[C@H](COC(=O)N5CCC(CN7CCC(c8ccc9c(C%10CCC(=O)NC%10=O)nn(C)c9c8)CC7)CC5)CC6)nc4c3F)c12 (stereo partly drawn) [Compound 99]"
  STUDY TARGET: "KRAS G12D (Homo sapiens, UniProt P01116, G12D)"
  DC50: "< 0.1 µM"
- MOLECULE: "C#Cc1c(F)ccc2cccc(-c3ncc4c(N5CCC[C@@](C)(O)C5)nc(OCC5(CN6CCC(CN7CCC(c8ccc9c(c8)n(C)c(=O)n9C8CCC(=O)NC8=O)CC7)CC6)CC5)nc4c3F)c12 (stereo partly drawn) [Compound 48]"
  STUDY TARGET: "KRAS G12D (Homo sapiens, UniProt P01116, G12D)"
  DC50: "> 0.3 µM"
- MOLECULE: "C#Cc1c(F)ccc2cccc(-c3ncc4c(N5CCC[C@@](C)(O)C5)nc(OCC5(CN6CCC(CN7CCN(c8ccc9c(c8)n(C)c(=O)n9C8CCC(=O)NC8=O)CC7)CC6)CC5)nc4c3F)c12 (stereo partly drawn) [Compound 26]"
  STUDY TARGET: "KRAS G12D (Homo sapiens, UniProt P01116, G12D)"
  DC50: "> 0.3 µM"

Q: Write down measured DC50 (KRAS G12D (Homo sapiens, UniProt P01116, G12D)) for this molecule. CCc1c(F)ccc2cc(O)cc(-c3ncc4c(N5CCC[C@@](C)(O)C5)nc(OC[C@@]56CCCN5[C@H](COC(=O)N5CCC(CN7CCC(c8cc9c(cc8F)c(C8CCC(=O)NC8=O)nn9C)CC7)CC5)CC6)nc4c3F)c12 (stereo partly drawn) [Compound 102]
A: < 0.1 µM

Q: For KRAS G12D (Homo sapiens, UniProt P01116, G12D), give the measured DC50 of the entry CCc1c(F)ccc2cc(O)cc(-c3ncc4c(N5CCC[C@@](C)(O)C5)nc(OC[C@@]56CCCN5[C@H](COC(=O)N5CCC(N7CC8(CCN(c9ccc%10c(c9)n(C)c(=O)n%10C9CCC(=O)NC9=O)CC8)C7)CC5)CC6)nc4c3F)c12 (stereo partly drawn) [Compound 362]
A: < 0.1 µM

Q: Provide DC50, system KRAS G12D (Homo sapiens, UniProt P01116, G12D), entry CCc1c(F)ccc2cc(O)cc(-c3ccc4c(N5CCC[C@@](C)(O)C5)nc(OC[C@@]56CCCN5[C@H](COC(=O)N5CCC(CN7CCC(c8ccc9c(c8)n(C)c(=O)n9C8CCC(=O)NC8=O)CC7)CC5)CC6)nc4c3F)c12 (stereo partly drawn) [Compound 146]
A: < 0.1 µM

Q: Give the observed DC50 of CCc1c(F)ccc2cc(O)cc(-c3ncc4c(N5CCC[C@@](C)(O)C5)nc(OC[C@@]56CCCN5[C@H](COC(=O)N5CCC(CN7CCC(c8cc9c(cc8F)n(C8CCC(=O)NC8=O)c(=O)n9C)CC7)CC5)CC6)nc4c3F)c12 (stereo partly drawn) [Compound 101] for KRAS G12D (Homo sapiens, UniProt P01116, G12D).
A: < 0.1 µM

FYI, the data here is from patent US12599672B2.
